# assayOverview: qHTS drug screen for cell cycle checkpoint inhibitors in PARPi-resistant BRCA-mutant ovarian cancer cell lines. (AID 1963452)
# condition: PEO1/OlaR viability, CellTiter-Glo luminescence, 96 h; measured here: PEO4 Z-AUC; stronger effect = lower value
measuredMetric: Z-AUC
When you answer, write just the number.

Study these solved cases before continuing.
| compound | measurement |
| --- | --- |
| CO[C@H]1/C=C/O[C@@]2(C)Oc3c(C)c(O)c4c(O)c(c(/C=N/N5CCN(C)CC5)c(O)c4c3C2=O)NC(=O)/C(C)=C\C=C\[C@H](C)[C@H](O)[C@@H](C)[C@@H](O)[C@@H](C)[C@H](OC(C)=O)[C@@H]1C | 1.29 |
| c1ccc2c(-c3cnn4cc(-c5ccc(OCCN6CCOCC6)cc5)cnc34)ccnc2c1 | -0.99 |
| Nc1nc(Nc2ccc3c(c2)CC[C@@H](N2CCCC2)CC3)nn1-c1cc2c(nn1)-c1ccccc1CCC2 | -0.517 |
| COc1cc(N2CCN(C)CC2)ccc1Nc1ncc2c(n1)N(C)c1ccccc1C(=O)N2 | 0.52 |
| CCc1ccc2nc(Nc3cc(Cc4ccccc4)nc(NC4CCC(O)CC4)n3)sc2c1 (configuration not stated) | -0.703 |
| COC(=O)N[C@H](C(=O)N1CCC[C@H]1c1ncc(-c2ccc(-c3ccc(-c4cnc([C@@H]5CCCN5C(=O)[C@@H](NC(=O)OC)C(C)C)[nH]4)cc3)cc2)[nH]1)C(C)C | -0.801 |

(Q) Output measured Z-AUC for this item: COc1ncc(Nc2ncc(C(C)N3CCN(S(C)(=O)=O)CC3)cc2-c2nc(C)nc(N)n2)cc1F (configuration not stated)
(A) 0.144

(Q) Hello, please tell me recorded Z-AUC for this one: Nc1cc(C(F)(F)F)c(-c2nc(N3CCOCC3)nc(N3CCOCC3)n2)cn1
(A) -0.177

(Q) Read the entry Cc1noc(C)c1-c1ccc(-c2cc(C(N)=O)c(NC(N)=O)s2)c(O[C@H]2CCNC2)c1 and write its reported Z-AUC.
(A) -0.908

(Q) Quickly give me recorded Z-AUC for O=c1c(-c2ccc(O)cc2)coc2cc(O[C@@H]3O[C@H](CO)[C@@H](O)[C@H](O)[C@H]3O)ccc12
(A) 1.57

(Q) Check the records and state Z-AUC for CCC[C@H](NC(=O)[C@@H]1[C@H]2CCC[C@H]2CN1C(=O)[C@@H](NC(=O)[C@@H](NC(=O)c1cnccn1)C1CCCCC1)C(C)(C)C)C(=O)C(=O)NC1CC1
(A) 0.725

---

# assayOverview: qHTS Assay for Lipid Storage Modulators (AID 1519)
# condition: Drosophila S3 cells, BODIPY lipid droplet/cell ratio, laser cytometry; measured here: lipid channel max response; cells loaded with oleic acid
Inconclusive results are not listed.
measuredMetric: max response (%)
Could you give me the number in %? Just the number is fine.

| molecule | quantityUnit | max response |
| --- | --- | --- |
| O=c1c(-c2ccc(O[C@@H]3O[C@H](CO)[C@@H](O)[C@H](O)[C@H]3O)cc2)coc2cc(O)cc(O)c12 | % | 5.64 |
| CC1(C)OC2CO[C@]3(COS(N)(=O)=O)OC(C)(C)OC3C2O1 (some centres undefined) | % | 8.91 |
| CO[C@@H]1C[C@H](O[C@H]2[C@@H](C)[C@H](O[C@@H]3O[C@@H](C)C[C@@H](N(C)C)[C@@H]3OC(C)=O)[C@H](C)C[C@]3(CO3)C(=O)[C@H](C)[C@H](OC(C)=O)[C@H](C)[C@H](C)OC(=O)[C@@H]2C)O[C@H](C)[C@@H]1OC(C)=O | % | -9.02 |
| CCc1ccc2c(O)c3c(cc2c1C(=O)OC)C(=O)c1c(O)ccc(O)c1C3=O | % | 24.1 |
| CC(=O)Oc1cc2c(c(C)c1OC(C)=O)CC=C1[C@]3(C)CC[C@]4(C)CC[C@@](C)(C(=O)O)CC4[C@]3(C)CC[C@]12C (some centres undefined) | % | -12.4 |

(Q) Report max response for CC1(C)OC2C(CO)OC(n3cnc4c(=O)[nH]c(N)nc43)C2O1 (centres undefined)
(A) 28

(Q) Quick one: give measured max response for C/C1=C/CC(C)(C)/C=C/C/C(C)=C/CC1
(A) 16.9

(Q) Identify measured max response associated with CNC1C(O)[C@@H]2OC(O[C@@H]3C(O)C(O)C(N)C[C@H]3N)C(N)C[C@H]2O[C@H]1O[C@@H]1OC(CO)C(N)C(O)C1O (some centres undefined)
(A) 24.6

(Q) Note down max response recorded for COC1=CC(C)C2CC3OC(=O)CC4C(C)=C(OC)C(=O)C([C@]2(C)C1=O)[C@]34C (some centres undefined)
(A) 6.48

(Q) Using the record for NS(=O)(=O)c1cc2c(cc1Cl)N[C@@H](CC1CCCC1)NS2(=O)=O , state its measured max response.
(A) 1.04

---

# System: TAB165
# assayOverview: qHTS profiling for inhibitors of Plasmodium falciparum proliferation (AID 504749); also: nearly all actives have a fitted effect of over 60% in size
# condition: P. falciparum in erythrocytes, SYBR Green DNA, 72 h; series mostly up to 12.8 µM
Records with an inconclusive call do not appear. Calls of active or inactive are those of the source. Calls follow the shape of the dose curve; as a rule, active = well fitted inhibition curve with a large enough effect; inconclusive = small, poorly fitted or top-dose-only effect; inactive = flat fitted curve, though single readings scatter.
The reply should be one of these categories: active, inactive

Please review the entries below; each comes with its answer.
| compound | targetSystem | assignedClass |
| --- | --- | --- |
| O=C(OC[C@@H](O)CO)c1ccccc1Nc1ccnc2cc(Cl)ccc12 | TAB165 | inactive |
| COc1cc(N[C@@H](C)CCCN)c2ncccc2c1 | TAB165 | active |
| CC(C)NC[C@H]1CCc2cc(CO)c([N+](=O)[O-])cc2N1 | TAB165 | inactive |
| COc1ccc(-c2cc(=O)c3c(O)cc(O[C@H]4OC(COC5OC(C)C(O)C(O)[C@H]5O)C(O)C(O)C4O)cc3o2)cc1O (stereo partly specified) | TAB165 | inactive |

Next item in the queue.
(Q) What classification did CC[C@H]1NC(=O)c2cc(S(N)(=O)=O)c(Cl)cc2N1 end up with in this test?
(A) inactive

---

Reported activity change, negative = inhibition by item:
# assayOverview: qHTS Assay for Lipid Storage Modulators (AID 1519); as to activity change, negative = inhibition: % is scaled to controls: 0 for no effect and ±100 for the full control effect
# condition: Drosophila S3 cells, BODIPY lipid droplet/cell ratio, laser cytometry; at 25.7 µM (top of the series); cells loaded with oleic acid
Results filed as inconclusive are left out.
Answer format: numeric, % implied, no suffix.

| chemicalStructure | quantityUnit | activity change, negative = inhibition |
| --- | --- | --- |
| CC(C)(C)NC(=O)[C@@H]1CC[C@@H]2[C@@H]3CC[C@@H]4NC(=O)C=C[C@@]4(C)[C@H]3CC[C@]21C | % | -1.87 |
| CCCCC[C@H](O)/C=C\[C@@H]1[C@H](O)CC(=O)[C@@H]1CCCCCCC(=O)O | % | -3.38 |
| CO[C@H]1[C@@H](OC(N)=O)[C@H](O)[C@@H](Oc2ccc3c(O)c(NC(=O)c4ccc(O)c(CC=C(C)C)c4)c(=O)oc3c2C)OC1(C)C | % | -1.82 |
| CN1CCCN=C1/C=C\c1cccs1 | % | 0.765 |
| COc1cc2nc(N3CCN(C(=O)[C@@H]4COc5ccccc5O4)CC3)nc(N)c2cc1OC | % | -1.08 |

(Q) Indicate the recorded activity change, negative = inhibition value for this molecule: N[C@H](Cc1cc(I)c(Oc2ccc(O)c(I)c2)c(I)c1)C(=O)O
(A) -1.62

(Q) Retrieve activity change, negative = inhibition measured for OCCN1CCN(CCC=C2c3ccccc3Sc3ccc(Cl)cc32)CC1 and print it.
(A) -7.08

(Q) Give the reported value of activity change, negative = inhibition for this record: CS(=O)(=O)c1ccc([C@H](O)[C@H](CO)NC(=O)C(Cl)Cl)cc1
(A) -0.717

(Q) Look up and state reported activity change, negative = inhibition for CCN(CC)CCOC(=O)[C@@H](Cc1cccc2ccccc12)C[C@@H]1CCCO1
(A) -5.4

---

# targetSystem: Cytochrome P450 2C9 (Homo sapiens)
# assayOverview: Cytochrome P450 family 2 subfamily C member 9 (CYP2C9) small molecule antagonists: luciferase biochemical (cell-free) qHTS assay (AID 1645842); also: nearly all actives have a fitted effect of over 55% in size
# condition: P450-Glo CYP2C9 enzyme assay, luciferin luminescence; series mostly up to 57.4 µM
Results filed as inconclusive are left out. The source made the active and inactive calls. The call rests on the fitted dose curve; in most records, active means well fitted inhibition curve with a large enough effect in the repeat runs; inconclusive means weak or mixed curves; inactive means no such curve, though single readings can be large or run the other way.
Please state which outcome applies, choosing from active, inactive

| compound | targetSystem | assignedClass |
| --- | --- | --- |
| Cc1ccc2c(c1)-c1c(c(C(=O)N3CCN(c4cc(C)ccc4C)CC3)nn1C)CS2 | Cytochrome P450 2C9 (Homo sapiens) | active |
| O=C(O)CN(CC(=O)O)Cc1cc2c(-c3ccccc3C(=O)O)c3cc(CN(CC(=O)O)CC(=O)O)c(=O)cc-3oc2cc1O | Cytochrome P450 2C9 (Homo sapiens) | inactive |

(Q) Could you check what this test reported for CCc1ccc(-n2c(SCc3ccccc3C)nc3[nH]ncc3c2=O)cc1 ?
(A) active

(Q) Fill in: this test's call for C=CCNCCCCCC[N+](C)(C)C is ___
(A) inactive

(Q) Record request — test call for CN(CCCCCCCCCCN(C)C(=O)Oc1cccc([N+](C)(C)C)c1)C(=O)Oc1cccc([N+](C)(C)C)c1
(A) inactive

(Q) Can you look up the reported call for CCOc1ccccc1NC(=O)Cn1c(=O)n(CCC(=O)NCc2ccc3c(c2)OCO3)c(=O)c2ccccc21 for me?
(A) active

(Q) For CCOc1ccc(C(=O)NCCS(=O)(=O)N2CCN(c3ccccc3F)CC2)cc1OCC , what call appears in the results of this test?
(A) active

(Q) Which outcome did this test record for the compound COc1ccc(Br)c2c1-c1nc(NC(=O)c3ccccc3SC)sc1C2 ?
(A) inactive

(Q) Hi team, can someone confirm the assay call for N#C/C(=C/c1ccccc1Cl)c1nc2ccccc2c(=O)[nH]1 ?
(A) active

(Q) Hi team, can someone confirm the assay call for COc1ccccc1C(=O)Oc1ccc(C(c2c(C)[nH][nH]c2=O)c2c(C)[nH][nH]c2=O)cc1 ?
(A) active

(Q) For Oc1c(C(Nc2ccccn2)c2ccccc2F)ccc2cccnc12 (stereo not given) , what call appears in the results of this test?
(A) active

(Q) What classification did O=C(CCCCCn1c(=O)c2sccc2n(CC(=O)Nc2cccc(Cl)c2)c1=O)NCc1ccc2c(c1)OCO2 end up with in this test?
(A) active

(Q) Please indicate how the test categorized COc1ccc(CCNc2nc(SCc3cccc(F)c3)nc3ccccc23)cc1OC .
(A) active

(Q) For Cc1cc(-n2c(SCc3ccccc3F)nc3[nH]ncc3c2=O)ccc1Cl , what call appears in the results of this test?
(A) active

(Q) GET /call?item= Cc1cc(NC(=O)C2CCN(S(=O)(=O)c3ccc4[nH]c(=O)oc4c3)CC2)ccc1Br returns the recorded outcome of this test.
(A) active

(Q) Check the results log: what was the call for Cc1ccccc1C(=O)Nc1sc2c(c1C(=O)O)CCC(C(C)(C)C)C2 (stereo not given) ?
(A) inactive

(Q) Recorded test call requested for C=C(C)[C@H]1CC=C(C)CC1
(A) inactive

(Q) Lab log entry: CCOc1ccc(NC(=O)Cn2cc(C(=O)c3ccco3)c3ccccc32)cc1 — outcome as called in the assay?
(A) active

(Q) Please state the recorded outcome for this compound: COc1ccccc1NC(=O)Cn1c(=O)n(Cc2nc(-c3ccccc3)no2)c(=O)c2ccccc21
(A) active

(Q) Hey, what did the test say about Cc1cccc(C)c1NC(=O)Cn1cc(C(=O)c2ccco2)c2ccccc21 ?
(A) active
